Entry source: ChEMBL document CHEMBL1129127

The next entries give measured pIC50 for Protein kinase C eta type (Homo sapiens, UniProt P24723).
Please treat pIC50 as minus the base-10 logarithm of the molar concentration.

Worked cases, pIC50 given:
O=C(NC1CCCC1OC(=O)c1cc(O)c(C(=O)c2c(O)cccc2C(=O)O)c(O)c1)c1ccc(O)cc1 (stereo not drawn): 9.00
O=C(OC1CNCC1Cc1ccc(O)cc1)c1cc(O)c(C(=O)c2c(O)cccc2C(=O)O)c(O)c1 (stereo not drawn): 7.70

Okay, next one:
Incoming: Please provide the recorded pIC50 for COC(=O)c1cccc(O)c1C(=O)c1c(O)cc(C(=O)OC2CNCC2Cc2ccc(O)cc2)cc1O (stereo not drawn) , tested on Protein kinase C eta type (Homo sapiens, UniProt P24723).
Sequence (P24723 whole entry): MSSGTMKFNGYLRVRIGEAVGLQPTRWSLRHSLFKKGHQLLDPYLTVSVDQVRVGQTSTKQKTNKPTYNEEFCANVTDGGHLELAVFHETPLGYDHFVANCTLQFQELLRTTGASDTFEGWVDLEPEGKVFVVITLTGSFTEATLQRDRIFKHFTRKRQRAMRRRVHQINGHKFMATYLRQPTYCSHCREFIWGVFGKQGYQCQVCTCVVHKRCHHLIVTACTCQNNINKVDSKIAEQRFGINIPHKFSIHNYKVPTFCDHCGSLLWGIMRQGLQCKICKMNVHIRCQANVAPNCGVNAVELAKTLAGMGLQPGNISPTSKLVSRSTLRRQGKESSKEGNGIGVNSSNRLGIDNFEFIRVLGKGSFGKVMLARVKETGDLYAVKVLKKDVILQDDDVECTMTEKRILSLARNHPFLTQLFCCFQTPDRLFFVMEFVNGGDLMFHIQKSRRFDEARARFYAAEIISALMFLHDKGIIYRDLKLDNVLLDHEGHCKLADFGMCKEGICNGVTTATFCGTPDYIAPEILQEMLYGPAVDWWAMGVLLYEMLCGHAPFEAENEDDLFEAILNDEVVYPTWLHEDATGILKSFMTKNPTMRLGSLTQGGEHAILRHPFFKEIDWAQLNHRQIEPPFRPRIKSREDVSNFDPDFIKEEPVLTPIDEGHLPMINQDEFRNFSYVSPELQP
Outgoing: 7.30

---

ASSAYED_SYSTEM: Protein kinase C delta type (Homo sapiens, UniProt Q05655)
Sequence (Q05655 whole entry): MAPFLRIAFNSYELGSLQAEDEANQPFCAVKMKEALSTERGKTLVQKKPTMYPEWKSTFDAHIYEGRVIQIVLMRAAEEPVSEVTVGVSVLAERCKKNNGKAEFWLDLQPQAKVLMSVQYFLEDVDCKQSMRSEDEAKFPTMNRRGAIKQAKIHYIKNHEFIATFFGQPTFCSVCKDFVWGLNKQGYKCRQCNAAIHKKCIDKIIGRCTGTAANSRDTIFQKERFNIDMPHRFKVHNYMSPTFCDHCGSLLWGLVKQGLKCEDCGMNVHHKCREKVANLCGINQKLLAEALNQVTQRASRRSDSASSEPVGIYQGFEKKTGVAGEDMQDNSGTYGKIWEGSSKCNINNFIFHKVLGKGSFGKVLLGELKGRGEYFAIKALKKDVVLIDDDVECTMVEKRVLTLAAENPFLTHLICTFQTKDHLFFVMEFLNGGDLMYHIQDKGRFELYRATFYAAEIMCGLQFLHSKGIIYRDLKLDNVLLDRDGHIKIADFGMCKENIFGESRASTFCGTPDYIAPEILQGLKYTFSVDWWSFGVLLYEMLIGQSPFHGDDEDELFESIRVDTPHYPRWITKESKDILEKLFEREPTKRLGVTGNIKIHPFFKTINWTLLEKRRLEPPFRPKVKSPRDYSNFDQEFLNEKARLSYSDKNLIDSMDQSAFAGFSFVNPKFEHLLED
TEST_DETAILS: Inhibition of protein kinase C delta
Recorded measurements of IC50, one per entry
Write the number in nM without appending the unit.

Worked cases, IC50 given:
O=C(NC1CNCC1OC(=O)c1cc(O)c(C(=O)c2c(O)cccc2C(=O)O)c(O)c1)c1ccc(O)cc1 (centres undefined): 5
O=C(NC1CCCC1OC(=O)c1cc(O)c(C(=O)c2c(O)cccc2C(=O)O)c(O)c1)c1ccc(O)cc1 (centres undefined): 1
O=C(NC1CNCCCC1OC(=O)c1cc(O)c(C(=O)c2c(O)cccc2C(=O)O)c(O)c1)c1ccc(O)cc1 (single isomer, unassigned; (-)): 16

Okay, next one:
Incoming: Given the entry O=C(OC1CNCC1Cc1ccc(O)cc1)c1cc(O)c(C(=O)c2c(O)cccc2C(=O)O)c(O)c1 (centres undefined) , report its measured IC50.
Outgoing: 5

---

ASSAYED_SYSTEM: Protein kinase C alpha type (Homo sapiens, UniProt P17252)
RECORDED_METRIC: IC50

Incoming: Given the entry O=C(NC1CNCC1OC(=O)c1cc(O)c(C(=O)c2c(O)cccc2C(=O)O)c(O)c1)c1ccc(O)cc1 (stereo unspecified) , report its measured IC50.
Outgoing: 22 nM

---

Recorded measurements of pIC50, one per entry
ASSAYED_SYSTEM: Protein kinase C beta type (Homo sapiens, UniProt P05771)
Sequence (P05771 whole entry): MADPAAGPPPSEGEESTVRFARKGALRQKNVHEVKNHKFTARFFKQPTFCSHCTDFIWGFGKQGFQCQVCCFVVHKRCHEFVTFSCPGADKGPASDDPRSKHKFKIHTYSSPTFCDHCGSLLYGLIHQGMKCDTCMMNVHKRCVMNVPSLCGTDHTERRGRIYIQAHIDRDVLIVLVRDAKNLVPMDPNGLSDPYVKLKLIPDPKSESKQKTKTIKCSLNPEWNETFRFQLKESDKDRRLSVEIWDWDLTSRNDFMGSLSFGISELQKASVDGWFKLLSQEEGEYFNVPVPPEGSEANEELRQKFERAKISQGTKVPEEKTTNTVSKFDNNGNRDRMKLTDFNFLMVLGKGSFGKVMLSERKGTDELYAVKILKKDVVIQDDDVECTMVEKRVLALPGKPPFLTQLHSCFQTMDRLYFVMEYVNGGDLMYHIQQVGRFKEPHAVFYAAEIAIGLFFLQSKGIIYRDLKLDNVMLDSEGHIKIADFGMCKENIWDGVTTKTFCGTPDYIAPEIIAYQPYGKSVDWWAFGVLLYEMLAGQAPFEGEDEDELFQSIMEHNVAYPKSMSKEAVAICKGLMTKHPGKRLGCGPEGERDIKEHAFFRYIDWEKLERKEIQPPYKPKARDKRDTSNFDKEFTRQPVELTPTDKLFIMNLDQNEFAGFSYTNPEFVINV
TEST_DETAILS: Inhibition of protein kinase C beta II
Please treat pIC50 as minus the base-10 logarithm of the molar concentration.

O=C(NC1CNCC1OC(=O)c1cc(O)c(C(=O)c2c(O)cccc2C(=O)O)c(O)c1)c1ccc(O)cc1 (configuration not stated): 7.48

Incoming: Please provide the recorded pIC50 for O=C(NC1CNCCCC1OC(=O)c1cc(O)c(C(=O)c2c(O)cccc2C(=O)O)c(O)c1)c1ccc(O)cc1 (single isomer, unassigned; (-)) , tested on Protein kinase C beta type (Homo sapiens, UniProt P05771).
Outgoing: 8.00

---

TEST_DETAILS: Inhibition of protein kinase A.
RECORDED_METRIC: pIC50
Please treat pIC50 as minus the base-10 logarithm of the molar concentration.

Incoming: Given the entry O=C(NC1CNCCCC1OC(=O)c1cc(O)c(C(=O)c2c(O)cccc2C(=O)O)c(O)c1)c1ccc(O)cc1 (single isomer, unassigned; (-)) , report its measured pIC50.
Outgoing: 7.40

---

Recorded measurements of pIC50, one per entry
TEST_DETAILS: Inhibition of protein kinase A.
Please treat pIC50 as minus the base-10 logarithm of the molar concentration.

Worked cases, pIC50 given:
O=C(OC1CCCC1Oc1ccc(O)cc1)c1cc(O)c(C(=O)c2c(O)cccc2C(=O)O)c(O)c1 (stereo unspecified): 4.30
O=C(OC1CNCC1Cc1ccc(O)cc1)c1cc(O)c(C(=O)c2c(O)cccc2C(=O)O)c(O)c1 (stereo unspecified): 6.49
O=C(NC1CNCC1OC(=O)c1cc(O)c(C(=O)c2c(O)cccc2C(=O)O)c(O)c1)c1ccc(O)cc1 (stereo unspecified): 7.15

Okay, next one:
Incoming: Given the entry O=C(NC1CNCCCC1OC(=O)c1cc(O)c(C(=O)c2c(O)cccc2C(=O)O)c(O)c1)c1ccc(O)cc1 (racemic) , report its measured pIC50.
Outgoing: 7.22
